B1: MTMR15 (parent)
chain: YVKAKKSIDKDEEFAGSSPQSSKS

variants of: B1; test: protein stability index of a GFP-peptide fusion (GPS, HEK-293T) (PSI 1-6); higher = more stable; conditions: c terminus: a fixed tail appended;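 note: lentivirally expressed fusions sorted by FACS into six bins by GFP to DsRed ratio, PSI derived from sequencing read proportions per bin multiplied by bin number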
Cut-off 3 on protein stability index, inclusive. At or above means 1 (yes); below means 0 (no).

Quick check, protein stability index >= 3? S22P
1 (yes)

Test whether the variant K23I records protein stability index of 3 or higher.
0 (no)

Is the recorded value of protein stability index equal to or greater than 3 for this variant? S7W
0 (no)

protein stability index >= 3 for K23V ?
1 (yes)

Does protein stability index meet or surpass 3 for K3W ?
1 (yes)

Is protein stability index for S24V at or above 3?
0 (no)

Does the reported protein stability index for S24Y fall at or above the 3 mark?
0 (no)

Can S18R be said to have protein stability index at or above 3?
1 (yes)

# bool: protein stability index of S18D >= 3
1 (yes)

Check if protein stability index >= 3 (inclusive). Item: K3Y
0 (no)

protein stability index >= 3 for F14I ?
1 (yes)

Does the reported protein stability index for D11F fall at or above the 3 mark?
0 (no)

Could you tell me if the measured protein stability index of D11Y reaches 3 or more?
0 (no)
